assay: Solubility of the isolated compound, described in words; type: physicochemical; settings: water, neutral and alkaline conditions
reportedEndpoint: solubility under neutral and alkaline conditions

molecule	assayValue
NC(=O)CCc1nc2c3nc(C(=O)O)cc(C(=O)O)c3c3[nH]c(C(=O)O)cc3c2o1	very easily soluble
Cc1nc2c3nc(C(=O)O)cc(C(=O)O)c3c3[nH]c(C(=O)O)cc3c2o1	very easily soluble
O=C(O)c1cc(C(=O)O)c2c(n1)c1nc(CO)oc1c1cc(C(=O)O)[nH]c12 [Hydroxymethyl OPQ]	very easily soluble
O=C(O)CCc1nc2c3nc(C(=O)O)cc(C(=O)O)c3c3[nH]c(C(=O)O)cc3c2o1	very easily soluble
